Metric Name: melting point (°C)

I. O=C(O)/C=C/C(=O)O.c1ccc2c(c1)ncn2-c1ccc(N2CCNCC2)nn1
II. CN1C2CCC1CN(c1ccccc1)CC2.O=C(O)/C=C/C(=O)O (racemic)
Q. Task for the reader: decide whether I or II has the larger melting point. Answer by quoting the chosen item's label.
A. I
